Recorded values, source patent US20050256058A1.

Please provide measured log10 of k2 for the entries that follow.
assay.target: T1, Caspase-9 (UniProt P55211 1-416, limits assumed)
T1 sequence (looked up): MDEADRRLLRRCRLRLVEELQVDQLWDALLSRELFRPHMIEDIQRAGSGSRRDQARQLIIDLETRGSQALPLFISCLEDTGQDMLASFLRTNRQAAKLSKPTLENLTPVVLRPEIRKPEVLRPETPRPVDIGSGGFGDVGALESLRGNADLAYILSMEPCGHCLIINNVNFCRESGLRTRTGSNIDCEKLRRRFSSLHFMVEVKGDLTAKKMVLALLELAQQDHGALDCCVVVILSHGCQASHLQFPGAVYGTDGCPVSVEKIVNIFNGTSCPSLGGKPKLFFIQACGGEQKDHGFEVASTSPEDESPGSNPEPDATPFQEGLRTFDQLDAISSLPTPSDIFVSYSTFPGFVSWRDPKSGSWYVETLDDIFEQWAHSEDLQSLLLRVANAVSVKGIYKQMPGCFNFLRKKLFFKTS
method.description: cell-based or functional assay
Numbered stars: 1 amine (or outer) side, 2 acyl side, 3 side chain; on linkers, the order of the positions; unused ones are H or OH. Square brackets hold non-standard residues; d marks the D form. * marks the point of attachment. AAsp = aza-Asp, O=C(N(CC(=O)[*:3])N[*:1])[*:2]; CH═CH‑CON(CH3)CH2Ph = CN(Cc1ccccc1)C(=O)/C=C/*; Cbz = O=C(OCc1ccccc1)*
Scale type: logarithmic (base 10). Underlying k2 unit: M⁻¹ s⁻¹.

binder	observed
Cbz-DEV[AAsp]-{CH═CH‑CON(CH3)CH2Ph} (SMILES CC(C)[C@H](NC(=O)[C@H](CCC(=O)O)NC(=O)[C@H](CC(=O)O)NC(=O)OCc1ccccc1)C(=O)NN(CC(=O)O)C(=O)/C=C/C(=O)N(C)Cc1ccccc1) [Cbz-Asp-Glu-Val-AAsp-CH═CH-CON(CH3)CH2Ph]	2.91
Cbz-DEV[AAsp]-{CH═CH‑CON(CH2-1-Napth)2} [Cbz-Asp-Glu-Val-AAsp-CH═CH-CON(CH2-1-Napth)2]	2.18
Cbz-DEV[AAsp]-{CH═CH‑CO‑tetrahydroquinoline} [Cbz-Asp-Glu-Val-AAsp-CH═CH-CON-tetrahydroquinoline]	2.53
Cbz-Val-[AAsp]-{CH═CH‑CONH‑nBu} [Cbz-Val-AAsp-CH═CH-CONH-nBu]	1.51

# log10 of k2 of Cbz-DEV[AAsp]-{CH═CH‑CONHCH2CH2Ph} [Cbz-Asp-Glu-Val-AAsp-CH═CH-CONHCH2CH2Ph] = 2.82
